tested on: Ruminococcus gnavus DSM 108212; test: fold change of 2-Phenylethylamine concentration vs plate DMSO controls (fold change (ratio)); higher = more amine produced, active = hit call of the paper (significant change in both replicates, either direction); conditions: incubation time: 27 h, anaerobic, 37 °C;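 for the amine columns active = adjusted P below 0.05 in both replicates with a change the same way and a mean fold change under 0.8 or over 1.25; inactive = the rest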
Where a name gives a salt, the structure may show the parent alone.
Your reply should match one of these outcome classes. 1 = active, 0 = inactive

See these solved cases before continuing.
Compound	Label value
CC(=O)OCC(=O)[C@@]1(O)[C@H](C)C[C@H]2[C@@H]3CCC4=CC(=O)C=C[C@]4(C)[C@@]3(F)[C@@H](O)C[C@@]21C [Dexamethasone acetate] (20 µM)	0
Cc1cc(C(C)(C)C)c(O)c(C)c1CC1=NCCN1 [Oxymetazoline hydrochloride] (20 µM)	0
CC(=O)O[C@]1(C(C)=O)CC[C@H]2[C@@H]3C=C(C)C4=CC(=O)CC[C@@H]4[C@H]3CC[C@@]21C [Nomegestrol acetate] (20 µM)	0
CC(C)c1cc2c(cc1S(=O)(=O)O)[C@@]1(C)CCC[C@@](C)(C(=O)O)[C@@H]1CC2 [Ecabet sodium] (20 µM)	0
CC(=O)CC(c1ccccc1)c1c(O)c2ccccc2oc1=O (stereo not drawn) (20 µM)	0
Nc1nc2[nH]cnc2c(=S)[nH]1 [Tioguanine] (20 µM)	0
CC(=O)[C@H]1CC[C@H]2[C@@H]3C=CC4=CC(=O)CC[C@@]4(C)[C@@H]3CC[C@]12C [Dydrogesterone] (20 µM)	0
CCC1(C)CC(=O)NC1=O (stereo not drawn) [Ethosuximide] (20 µM)	0
CC(C)NC(=N)NC(=N)Nc1ccc(Cl)cc1 [Proguanil hydrochloride] (20 µM)	0
CCSc1ccc2c(c1)N(CCCN1CCN(C)CC1)c1ccccc1S2 [Thiethylperazine maleate] (20 µM)	0

Q: Field: outcome | Entry: Cc1onc(-c2ccccc2Cl)c1C(=O)N[C@@H]1C(=O)N2[C@@H]1SC(C)(C)[C@@H]2C(=O)O [Cloxacillin sodium salt] (20 µM)
Ans: 1

Q: What is the recorded call for this compound in the test? N=C(N)NC(=O)Cc1c(Cl)cccc1Cl [Guanfacine hydrochloride] (20 µM)
Ans: 0

Q: Outcome? OC[C@@H](O)[C@@H](O[C@H]1O[C@H](CO)[C@@H](O)[C@H](O)[C@H]1O)[C@H](O)[C@@H](O)CO [Maltitol] (50 µM)
Ans: 0

----------
test system: Escherichia coli IAI1; experiment: fold change of Putrescine concentration vs plate DMSO controls (fold change (ratio)); higher = more amine produced, active = hit call of the paper (significant change in both replicates, either direction); settings: incubation time: 27 h, anaerobic, 37 °C
Counter-ions that a name gives are not always drawn.
Entries and their fold change of Putrescine concentration
Just the number, please, no unit attached.

Example entries and their recorded answers appear below.
Molecule	Tested system	fold change of Putrescine concentration
CCN(CC)C(=O)/C(C#N)=C/c1cc(O)c(O)c([N+](=O)[O-])c1 [Entacapone] (20 µM)	Escherichia coli IAI1	0.993
CC(C)(C)C(=O)OCOC(=O)[C@@H]1N2C(=O)[C@@H](/N=C/N3CCCCCC3)[C@H]2SC1(C)C [Pivmecillinam hydrochloride] (20 µM)	Escherichia coli IAI1	1.02
Cc1cc2c(cc1S(N)(=O)=O)S(=O)(=O)CCC2 [Meticrane] (20 µM)	Escherichia coli IAI1	0.983

Q: // lookup fold change of Putrescine concentration for NNc1nncc2ccccc12 [Hydralazine hydrochloride] (20 µM)
Ans: 0.983

Q: Could you share which fold change of Putrescine concentration value was measured for COCCc1ccc(OCC(O)CNC(C)C)cc1 (stereo not drawn) [Metoprolol-(+)-tartrate salt] (20 µM) ?
Ans: 0.998

Q: Which value of fold change of Putrescine concentration has been reported for C[C@@H]1CCC[C@H](C)N1NC(=O)c1ccc(Cl)c(S(N)(=O)=O)c1 [Clopamide] (20 µM) in the records?
Ans: 0.989

Q: Given the molecule NC[C@@H]1O[C@@H](O[C@H]2[C@H](O)[C@@H](O[C@H]3O[C@H](CO)[C@@H](O)[C@H](N)[C@H]3O)[C@H](N)C[C@@H]2N)[C@@H](O)[C@H](O)[C@H]1O [Kanamycin A sulfate] (20 µM) , what is its reported fold change of Putrescine concentration?
Ans: 1.02

Q: Requested read-out: fold change of Putrescine concentration. Entry: CCOC1O[C@H]([C@@H](COCc2ccccc2)OCc2ccccc2)[C@H](OCc2ccccc2)[C@H]1O (stereo not given in full) [Tribenoside] (20 µM)
Ans: 1

Q: What does the data say about its fold change of Putrescine concentration? Entry: CCCN[C@H]1CCc2nc(N)sc2C1 [Pramipexole dihydrochloride] (20 µM)
Ans: 0.977

Q: Fill in: fold change of Putrescine concentration of C=C1[C@H](CO)[C@@H](O)C[C@@H]1n1cnc2c(=O)[nH]c(N)nc21 [Entecavir] (20 µM) is ___
Ans: 0.972

Q: Recorded fold change of Putrescine concentration for COCCOC(=O)C1=C(C)NC(C)=C(C(=O)OC/C=C/c2ccccc2)C1c1cccc([N+](=O)[O-])c1 (stereo not given) [Cilnidipine] (20 µM) , please?
Ans: 1

Q: What does the data say about its fold change of Putrescine concentration? Entry: CCCCOCCOCCOCc1cc2c(cc1CCC)OCO2 (20 µM)
Ans: 1

Q: // lookup fold change of Putrescine concentration for CN1CCC(=C2c3ccccc3CCc3sccc32)CC1 [Pizotifen malate] (20 µM)
Ans: 1

Q: Quick check: fold change of Putrescine concentration of CCCCS(=O)(=O)N[C@@H](Cc1ccc(OCCCCC2CCNCC2)cc1)C(=O)O [Tirofiban hydrochloride] (20 µM) ?
Ans: 0.994

Q: Recorded fold change of Putrescine concentration of C/C(=C1\CCOC(=O)S1)N(C=O)Cc1cnc(C)nc1N [Cycotiamine] (20 µM) , please.
Ans: 0.971
